Data credit: the supplement of paper PMC12783771

For each of the variants below, state its sfGFP reporter fluorescence.
B1: library; numbered along this chain (parent)
chain: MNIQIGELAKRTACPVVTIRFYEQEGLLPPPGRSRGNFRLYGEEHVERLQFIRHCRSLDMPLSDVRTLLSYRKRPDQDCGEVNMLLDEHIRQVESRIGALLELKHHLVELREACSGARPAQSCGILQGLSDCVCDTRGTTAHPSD

variants of: B1; test: sfGFP reporter fluorescence (15 h) (µM FITC); higher = higher leak; details: library round: Round 0; ligand: none
# print the numeric value only

Quick note, sfGFP reporter fluorescence for V16C landed at 0.0634

Item: N2A | sfGFP reporter fluorescence: 0.0517

# variant G116A ; its sfGFP reporter fluorescence = 0.0597

Reported sfGFP reporter fluorescence for G6M was 0.0603

sfGFP reporter fluorescence recorded for this variant, V108R , is 0.059

Measured sfGFP reporter fluorescence, C79S : 0.0592

// field: sfGFP reporter fluorescence; key: I90A ; value = 0.0625

// sfGFP reporter fluorescence lookup, variant = Y22R , result: 0.0678

Quick note, sfGFP reporter fluorescence for L62P landed at 0.0619

Entry E43R — recorded sfGFP reporter fluorescence = 0.0643

# sfGFP reporter fluorescence (variant: E7I ) is 0.059

The variant listed as C123H shows sfGFP reporter fluorescence equal to 0.0588

For record M60L P61N D64K the listed sfGFP reporter fluorescence is 0.611

Record L129C . Reported sfGFP reporter fluorescence: 0.0561

// field: sfGFP reporter fluorescence; key: P61N ; value = 0.0782

response.value for M84A (field: sfGFP reporter fluorescence) = 0.0618

Entry R20N — recorded sfGFP reporter fluorescence = 0.063

Sample R72A ; sfGFP reporter fluorescence observed: 0.0618

For reference, reported sfGFP reporter fluorescence for P30K stands at 0.0632

// sfGFP reporter fluorescence value for L68C : 0.0678

Value of sfGFP reporter fluorescence reported for the variant G6Q is 0.0592

Reported sfGFP reporter fluorescence of D131L : 0.0663
